Tested on: HeLa cells
Test: Protein expression assay in HeLa cells (One-Glo luciferase, NPI-Luc mRNA)
Assay type: cell-based, human
Details: 5 h, no serum, 4 wells, sterol amine post-added to LNP core Compound 18, DSPC, Cholesterol plus DMG-PEG 2K (SA3, SA11, SA24, SA26, SA39, SA32), plus Compound 428 (SA4, SA6, SA10, SA16), or plus β-sitosterol and DMG-PEG 2K (SA23, SA29, SA30, SA31)
Description: To evaluate protein expression In Vitro, HeLa cells from ATCC.org (ATCC CCL-2) are used. […] LNPs encapsulating NPI-Luc mRNA were dosed with MEM media in the absence of serum. […] Cells were detected using DAPI (405 nm channel), and image analysis was performed in Harmony 4.9, to quantify the number of cells. After imaging the cells were processed with One-Glo Luciferase assay (Promega) to quantify protein expression. Results were reported in relative luminescence units (RLU) normalized to cells counts. […]
Counter-ions that a name gives are not always drawn.
ENDPOINT_NAME: Average protein expression per cell (RLU per cell)
Response body: numeric value in RLU per cell, unit text excluded.

These recorded examples may help you get a feel for the data.
COMPOUND: CC(C)CCC[C@@H](C)[C@H]1CC[C@H]2[C@@H]3CC=C4C[C@@H](SSCCC(=O)N(CCCN)CCCCNCCCN)CC[C@]4(C)[C@H]3CC[C@]12C [SA39, trihydrochloride]
MEASUREMENT: 201.9
//
COMPOUND: CC(C)CCC[C@@H](C)[C@H]1CC[C@H]2[C@@H]3CC=C4C[C@@H](OC(=O)NCCCNCCCCN)CC[C@]4(C)[C@H]3CC[C@]12C [SA30, dihydrochloride]
MEASUREMENT: 648.3

Here is the next item to consider.
query: What Average protein expression per cell (RLU per cell) value was documented for this compound, CC(C)CCC[C@@H](C)[C@H]1CC[C@H]2[C@@H]3CC=C4C[C@@H](OC(=O)N(CCCN)CCCCN)CC[C@]4(C)[C@H]3CC[C@]12C [SA29, dihydrochloride] ?
result: 550.3

----------
test system: HeLa cells; assay: Protein expression assay in HeLa cells (One-Glo luciferase, NPI-Luc mRNA); assay type: cell-based, human; conditions: 5 h, no serum, 4 wells, sterol amine post-added to LNP core Compound 18, DSPC, Cholesterol plus DMG-PEG 2K (SA3, SA11, SA24, SA26, SA39, SA32), plus Compound 428 (SA4, SA6, SA10, SA16), or plus β-sitosterol and DMG-PEG 2K (SA23, SA29, SA30, SA31)
Where a name gives a salt, the structure may show the parent alone.
ENDPOINT_NAME: Average protein expression per cell (RLU per cell)
Response body: numeric value in RLU per cell, unit text excluded.

These recorded examples may help you get a feel for the data.
MOLECULE: CC(C)CCC[C@@H](C)[C@H]1CC[C@H]2[C@@H]3CC=C4C[C@@H](OC(=O)CCC(=O)N(CCCN(C)C)CCCN(C)C)CC[C@]4(C)[C@H]3CC[C@]12C [SA24, dihydrochloride]
MEASUREMENT: 457.2

MOLECULE: CC(C)CCC[C@@H](C)[C@H]1CC[C@H]2[C@@H]3CC=C4C[C@@H](OC(=O)CCc5cnc[nH]5)CC[C@]4(C)[C@H]3CC[C@]12C [SA11, hydrochloride salt]
MEASUREMENT: 5.3

MOLECULE: CC[C@H](CC[C@@H](C)[C@H]1CC[C@H]2[C@@H]3CC=C4C[C@@H](OC(=O)NCCN(C)C)CC[C@]4(C)[C@H]3CC[C@]12C)C(C)C
MEASUREMENT: 236.6

MOLECULE: CC(C)CCC[C@@H](C)[C@H]1CC[C@H]2[C@@H]3CC=C4C[C@@H](OC(=O)NCCN(C)CCO)CC[C@]4(C)[C@H]3CC[C@]12C
MEASUREMENT: 196.2

query: What measured Average protein expression per cell (RLU per cell) is associated with CC(C)CCC[C@@H](C)[C@H]1CC[C@H]2[C@@H]3CC=C4C[C@@H](OC(=O)NCCNC(=N)N)CC[C@]4(C)[C@H]3CC[C@]12C [SA23, hydrochloride salt] on HeLa cells?
result: 868.8
